Cited source for all entries: the supplement of paper PMC6555819

Tested on: LXRa:RXRa (NR concentration 270 nM, RXRa partner concentration 90 nM)
measurement.protocol: PBM binding z-score (relative to random genomic background probes); higher = stronger binding; sequences stand for … in GC…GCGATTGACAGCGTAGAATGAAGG
value.kind: PBM binding z-score
Lab note: write the figure by itself, no unit.

In: Requested field: PBM binding z-score. Item: CCTACTAGGTCAATGGTCAGCTAAAGCAGCTCGC
Out: 2.41

In: Entry under review: TCTAGTTGGTCACGGAGGTCTCACACGACGGGTA . Reported PBM binding z-score?
Out: 0.613

In: PBM binding z-score for TAGCCTAGGTCAGACCGGGCCAGTATACGCTATA ?
Out: 1.09

In: Recorded PBM binding z-score of AGTGAAAGTTCACTAGGTAACGTAAGATTCAGCT , please.
Out: 5.02

In: Please report the recorded PBM binding z-score for CCTAGTTGGTCAAGGTCACTCACGCTATAGGTAC .
Out: 3.42

In: Reported PBM binding z-score, sequence CCTAGCAGGCCAATCTGGGTCACTCATGGCTTGA : ____
Out: 0.933

In: Request the reported PBM binding z-score associated with CATACAGGGTCAGCTAGGCCAGAGCAGGGACGGC
Out: 3.07

In: Give its PBM binding z-score value. Item: TCAGATAGGTAAACAGGTGAAAGTCCGTAAGTTA
Out: 0.827

In: Which PBM binding z-score value is on record for CCGACTGGGCCAAGGTCATTGATCAGTCAAAGCA ?
Out: 2.76

In: Please give the measured PBM binding z-score for this sequence: CCTACTGGGCAAAGGTCATTGATCAGTCAAAGCA
Out: 5.6

In: Please report the recorded PBM binding z-score for TACACAGGGTCAAAGGCCAGAGTACGAATGTCGA .
Out: 5.94

In: Which PBM binding z-score value is on record for CGAAAGAGGGCATGAGTTGATAGCAAATGCCGAT ?
Out: 0.423

In: Consider the sequence shown here: GTACCAAGGTGAAAAGGTCGTTGATGAGTAGGCG What is its recorded PBM binding z-score?
Out: 1.94

In: # lookup: PBM binding z-score of GCTATTAGCTGAAAGGGCAACCGAATGATTCTCG
Out: 0.222

In: Find the recorded PBM binding z-score belonging to CCTCGGAGGAGAGAAGGTCAGAGCTGTCCGCTTT and report it.
Out: 0.874

In: Bench note: what PBM binding z-score did CCTAGTGGGTCAAGGTCACACACGCTATAGGTAC show?
Out: 4.37

In: Need PBM binding z-score of CCTACTGGGCCAAAAAGGTCATGGATGCCGATAA , thanks.
Out: 4.35

In: What value of PBM binding z-score has been reported for the following sequence? CCTGCTTGGTCATGGTCAGCTAATCTACAGTATG
Out: -0.299

In: Name the recorded PBM binding z-score for GCTTACGGGTCAAAGGTGATAGCATGAATAGAAT .
Out: 4.59

In: Give the measured PBM binding z-score of TCTTGTAGATCAAAGGTTCAGAAAGCCGAAGCCT .
Out: 0.971

In: Record request: PBM binding z-score value, item TCATATAGATAATACAGGTGAAAGTCGGCATCTA
Out: 0.946

In: What value of PBM binding z-score has been reported for the following sequence? CTCGAAAGGTCTTGCTCAGGTGAGTATACCAAAC
Out: 0.369

In: Looking for the measured PBM binding z-score of CTACCAAGGTTAACAAGGTCGTTGATTACTATTC , can you help?
Out: 3.3

In: Need PBM binding z-score, item GCTAGTTGGTCGGTAAAAGGTCACACACCGGTCG
Out: 4.03

In: Which value of PBM binding z-score has been reported for GGAACGAGGGCATTCGTGTTGATAGCATGGCGAT in the records?
Out: 0.372

In: May I ask what PBM binding z-score has been recorded for TCATATAGGGAAACAGGTGAAAGTCCGTAAGTTA ?
Out: 1.04

In: Please report the recorded PBM binding z-score for TTACCAAGGTGAAAGGTCGTTGGTGCACGCCTTG .
Out: 3.47

In: I'd like to know its PBM binding z-score. The sequence in question is TCTGCTAGGTCAGTTGGTCAGCTTACGAGCTGCC
Out: 0.456

In: Fill blank: measured PBM binding z-score of the sequence CCTTACGGGTAACTGACAGGTTATAGCATTTGGA is ____.
Out: 0.937

In: Dear colleague, I am looking for the recorded PBM binding z-score of the following sequence: CCTACTGGGCCACGAAATGTCATTGATTCAGTGA
Out: -0.0585

In: What value of PBM binding z-score has been recorded for this entry: CCTTACGGGTCACTGATAGGTTATAGCATTTGGA
Out: 4.27

In: What PBM binding z-score value was documented for this sequence, TCTATTAGTTGTAGGGCAACCGACGAGTCCGTTT ?
Out: 0.422

In: Any idea what its PBM binding z-score is? The sequence is CCTGCTAGGTGAATGGTCAGCTAAAGCAGCTCGC
Out: -0.375

In: Which measured PBM binding z-score value corresponds to CAAACTAGGTCACAGAGGTCATAGTCCGTGCGTA ?
Out: 6.13

In: Query (sequence): ATACCAAGGTGATCCTGAGGTCGTTGATACTAAC ; field requested: PBM binding z-score
Out: 2.1
